Test system: Escherichia coli TOP10
Assay: shrunken log2 fold change of peptide-encoding DNA abundance (4.5 h post-induction vs induction); higher = less antimicrobial activity (less host growth inhibition)
Conditions: time post-induction: 4.5 h; library: site-saturation at positions 5, 18, 19, 20
readout.kind: shrunken log2 fold change
API note: the answer field is a bare number with no unit suffix.

The sequence identified as RRIRERPPRLPRPRPRPESSPRP registered its shrunken log2 fold change at -0.192

The sequence identified as RRIRWRPPRLPRPRPRPAFWPRP registered its shrunken log2 fold change at 0.708

The sequence identified as RRIRPRPPRLPRPRPRPIGSPRP registered its shrunken log2 fold change at 0.0547

The sequence identified as RRIRERPPRLPRPRPRPYLTPRP registered its shrunken log2 fold change at -0.424

The sequence identified as RRIRMRPPRLPRPRPRPKVIPRP registered its shrunken log2 fold change at -0.259

The sequence identified as RRIRVRPPRLPRPRPRPAQRPRP registered its shrunken log2 fold change at 0.184

The sequence identified as RRIRVRPPRLPRPRPRPLSYPRP registered its shrunken log2 fold change at -0.18

The sequence identified as RRIRDRPPRLPRPRPRPINQPRP registered its shrunken log2 fold change at -0.389

The sequence identified as RRIRHRPPRLPRPRPRPKYCPRP registered its shrunken log2 fold change at -0.000924

The sequence identified as RRIRGRPPRLPRPRPRPSTWPRP registered its shrunken log2 fold change at 0.22

The sequence identified as RRIRHRPPRLPRPRPRPSLGPRP registered its shrunken log2 fold change at 0.165

The sequence identified as RRIRQRPPRLPRPRPRPQVAPRP registered its shrunken log2 fold change at -0.156

###

Test system: Escherichia coli TOP10
Assay: shrunken log2 fold change of peptide-encoding DNA abundance (4.5 h post-induction vs induction); higher = less antimicrobial activity (less host growth inhibition)
Settings: time post-induction: 4.5 h; library: site-saturation at positions 5, 18, 19, 20
# class assignment by measured shrunken log2 fold change: lower: < -0.03; middle: ≥ -0.03 and < 0.08; upper: ≥ 0.08

Using the reported shrunken log2 fold change, which band applies to RRIRHRPPRLPRPRPRPEAEPRP ?
upper

Using the reported shrunken log2 fold change, which band applies to RRIRPRPPRLPRPRPRPDSIPRP ?
lower

Using the reported shrunken log2 fold change, which band applies to RRIRRRPPRLPRPRPRPTARPRP ?
upper

Using the reported shrunken log2 fold change, which band applies to RRIRWRPPRLPRPRPRPQSPPRP ?
middle

Using the reported shrunken log2 fold change, which band applies to RRIRSRPPRLPRPRPRPNRGPRP ?
middle

Using the reported shrunken log2 fold change, which band applies to RRIRERPPRLPRPRPRPEVEPRP ?
lower

Using the reported shrunken log2 fold change, which band applies to RRIRPRPPRLPRPRPRPMERPRP ?
lower

Using the reported shrunken log2 fold change, which band applies to RRIRGRPPRLPRPRPRPNGLPRP ?
upper

Using the reported shrunken log2 fold change, which band applies to RRIRWRPPRLPRPRPRPATYPRP ?
middle

Using the reported shrunken log2 fold change, which band applies to RRIRIRPPRLPRPRPRPDTPPRP ?
middle

Using the reported shrunken log2 fold change, which band applies to RRIRCRPPRLPRPRPRPHKQPRP ?
lower

Using the reported shrunken log2 fold change, which band applies to RRIRHRPPRLPRPRPRPLMPPRP ?
lower

Using the reported shrunken log2 fold change, which band applies to RRIRIRPPRLPRPRPRPGAVPRP ?
upper

Using the reported shrunken log2 fold change, which band applies to RRIRARPPRLPRPRPRPDDNPRP ?
upper

Using the reported shrunken log2 fold change, which band applies to RRIRWRPPRLPRPRPRPIQMPRP ?
lower

Using the reported shrunken log2 fold change, which band applies to RRIRDRPPRLPRPRPRPECRPRP ?
upper

Using the reported shrunken log2 fold change, which band applies to RRIRERPPRLPRPRPRPKKRPRP ?
middle

Using the reported shrunken log2 fold change, which band applies to RRIRSRPPRLPRPRPRPAVQPRP ?
lower

Using the reported shrunken log2 fold change, which band applies to RRIRGRPPRLPRPRPRPQFQPRP ?
middle

Using the reported shrunken log2 fold change, which band applies to RRIRWRPPRLPRPRPRPMQIPRP ?
upper

Using the reported shrunken log2 fold change, which band applies to RRIRFRPPRLPRPRPRPTVEPRP ?
middle

Using the reported shrunken log2 fold change, which band applies to RRIRQRPPRLPRPRPRPTTQPRP ?
middle

Using the reported shrunken log2 fold change, which band applies to RRIRERPPRLPRPRPRPYGNPRP ?
lower

Using the reported shrunken log2 fold change, which band applies to RRIRSRPPRLPRPRPRPQWKPRP ?
lower

Using the reported shrunken log2 fold change, which band applies to RRIRKRPPRLPRPRPRPNESPRP ?
lower

Using the reported shrunken log2 fold change, which band applies to RRIRCRPPRLPRPRPRPHVGPRP ?
middle

###

Exercise: for every item that follows, state its recorded shrunken log2 fold change.
Tested on: Escherichia coli TOP10;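 further: peptides expressed intracellularly from a pBAD plasmid library in pooled LB shake-flask culture, induced with 0.3% L-arabinose, DNA abundance read by NGS, three biological replicates, DESeq2 with apeglm shrinkage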
Experiment: shrunken log2 fold change of peptide-encoding DNA abundance (4.5 h post-induction vs induction); higher = less antimicrobial activity (less host growth inhibition)
Conditions: time post-induction: 4.5 h; library: site-saturation at positions 5, 18, 19, 20
API note: the answer field is a bare number with no unit suffix.

The sequence identified as RRIRHRPPRLPRPRPRPMRNPRP registered its shrunken log2 fold change at 0.435

The sequence identified as RRIRGRPPRLPRPRPRPQCKPRP registered its shrunken log2 fold change at 0.165

The sequence identified as RRIRMRPPRLPRPRPRPWTHPRP registered its shrunken log2 fold change at -0.136

The sequence identified as RRIRRRPPRLPRPRPRPHFSPRP registered its shrunken log2 fold change at -0.187

The sequence identified as RRIRCRPPRLPRPRPRPVKLPRP registered its shrunken log2 fold change at -0.176

The sequence identified as RRIRDRPPRLPRPRPRPYDDPRP registered its shrunken log2 fold change at -0.00157

The sequence identified as RRIRFRPPRLPRPRPRPFYKPRP registered its shrunken log2 fold change at -0.311

The sequence identified as RRIRMRPPRLPRPRPRPTFRPRP registered its shrunken log2 fold change at -0.091

The sequence identified as RRIRKRPPRLPRPRPRPLCRPRP registered its shrunken log2 fold change at 0.392

The sequence identified as RRIRIRPPRLPRPRPRPEANPRP registered its shrunken log2 fold change at -0.00444

The sequence identified as RRIRNRPPRLPRPRPRPVDGPRP registered its shrunken log2 fold change at -0.175

The sequence identified as RRIRYRPPRLPRPRPRPTQRPRP registered its shrunken log2 fold change at -0.164

The sequence identified as RRIRDRPPRLPRPRPRPCVHPRP registered its shrunken log2 fold change at 0.412

The sequence identified as RRIRIRPPRLPRPRPRPQWNPRP registered its shrunken log2 fold change at -0.316

The sequence identified as RRIRRRPPRLPRPRPRPKYKPRP registered its shrunken log2 fold change at -0.148

The sequence identified as RRIRNRPPRLPRPRPRPHEQPRP registered its shrunken log2 fold change at -0.066

The sequence identified as RRIRLRPPRLPRPRPRPPHWPRP registered its shrunken log2 fold change at 0.38

The sequence identified as RRIRARPPRLPRPRPRPITMPRP registered its shrunken log2 fold change at -0.231

The sequence identified as RRIRYRPPRLPRPRPRPRLLPRP registered its shrunken log2 fold change at -0.0826

The sequence identified as RRIRQRPPRLPRPRPRPSAKPRP registered its shrunken log2 fold change at 0.104

The sequence identified as RRIRERPPRLPRPRPRPSMAPRP registered its shrunken log2 fold change at -0.192

The sequence identified as RRIRSRPPRLPRPRPRPESTPRP registered its shrunken log2 fold change at 0.0707

The sequence identified as RRIRVRPPRLPRPRPRPLSDPRP registered its shrunken log2 fold change at 0.0263

The sequence identified as RRIRWRPPRLPRPRPRPNKIPRP registered its shrunken log2 fold change at -0.432

The sequence identified as RRIRGRPPRLPRPRPRPTCQPRP registered its shrunken log2 fold change at 0.71

The sequence identified as RRIRYRPPRLPRPRPRPMWFPRP registered its shrunken log2 fold change at 0.0169

The sequence identified as RRIRSRPPRLPRPRPRPHPIPRP registered its shrunken log2 fold change at -0.214

The sequence identified as RRIRHRPPRLPRPRPRPSRSPRP registered its shrunken log2 fold change at -0.202

The sequence identified as RRIRDRPPRLPRPRPRPRMPPRP registered its shrunken log2 fold change at 0.156

The sequence identified as RRIRYRPPRLPRPRPRPAMIPRP registered its shrunken log2 fold change at -0.229

The sequence identified as RRIRLRPPRLPRPRPRPGAIPRP registered its shrunken log2 fold change at 0.0769

The sequence identified as RRIRERPPRLPRPRPRPWGFPRP registered its shrunken log2 fold change at 0.0221

The sequence identified as RRIRMRPPRLPRPRPRPGPRPRP registered its shrunken log2 fold change at 1.46

The sequence identified as RRIRHRPPRLPRPRPRPQCKPRP registered its shrunken log2 fold change at -0.161

The sequence identified as RRIRARPPRLPRPRPRPSCLPRP registered its shrunken log2 fold change at -0.0189

The sequence identified as RRIRNRPPRLPRPRPRPDRDPRP registered its shrunken log2 fold change at 0.0416

The sequence identified as RRIRGRPPRLPRPRPRPVAWPRP registered its shrunken log2 fold change at 0.508

The sequence identified as RRIRCRPPRLPRPRPRPRFSPRP registered its shrunken log2 fold change at -0.289

The sequence identified as RRIRTRPPRLPRPRPRPKPCPRP registered its shrunken log2 fold change at -0.126

The sequence identified as RRIRWRPPRLPRPRPRPIWRPRP registered its shrunken log2 fold change at 0.628

The sequence identified as RRIRRRPPRLPRPRPRPPSNPRP registered its shrunken log2 fold change at 0.0633

The sequence identified as RRIRVRPPRLPRPRPRPQACPRP registered its shrunken log2 fold change at 1.56

The sequence identified as RRIRLRPPRLPRPRPRPEQPPRP registered its shrunken log2 fold change at 0.437

The sequence identified as RRIRPRPPRLPRPRPRPKWVPRP registered its shrunken log2 fold change at 0.111

The sequence identified as RRIRHRPPRLPRPRPRPPTMPRP registered its shrunken log2 fold change at -0.354

The sequence identified as RRIRTRPPRLPRPRPRPNVPPRP registered its shrunken log2 fold change at -0.0447

The sequence identified as RRIRQRPPRLPRPRPRPPDNPRP registered its shrunken log2 fold change at 0.00496

The sequence identified as RRIRYRPPRLPRPRPRPRLVPRP registered its shrunken log2 fold change at -0.0287

The sequence identified as RRIRHRPPRLPRPRPRPRRNPRP registered its shrunken log2 fold change at -0.104

The sequence identified as RRIRTRPPRLPRPRPRPAPGPRP registered its shrunken log2 fold change at 0.544

The sequence identified as RRIRERPPRLPRPRPRPYWDPRP registered its shrunken log2 fold change at -0.111

The sequence identified as RRIRERPPRLPRPRPRPYEYPRP registered its shrunken log2 fold change at -0.387

The sequence identified as RRIRCRPPRLPRPRPRPEDYPRP registered its shrunken log2 fold change at -0.304

The sequence identified as RRIRSRPPRLPRPRPRPYDAPRP registered its shrunken log2 fold change at -0.557

The sequence identified as RRIRVRPPRLPRPRPRPMRCPRP registered its shrunken log2 fold change at 0.204

The sequence identified as RRIRRRPPRLPRPRPRPEMYPRP registered its shrunken log2 fold change at 0.0119

The sequence identified as RRIRIRPPRLPRPRPRPLHNPRP registered its shrunken log2 fold change at -0.563
